Target: KIX domain of CBP (UniProt P45481 586-665)
Sequence (P45481 586-665): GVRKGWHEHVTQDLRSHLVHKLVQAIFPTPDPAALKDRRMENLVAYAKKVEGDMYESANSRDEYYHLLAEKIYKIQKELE
Assay: stopped-flow fluorescence (association kinetics) + dissociation kinetics by competition; KdKin calculated as kdiss/kass,fast
Details: both partners purified
pKd: −log10 of the molar value. Non-standard residues stand in square brackets, D forms with d. No end group written: not given here. *: point of attachment. FITC = O=C1OC2(c3ccc(O)cc3Oc3cc(O)ccc32)c2ccc(NC(=S)*)cc21; pS = N[C@@H](COP(=O)(O)O)C(=O)O
Kindly return Condition met if reported pKd is no lower than 6; return Condition not met if it is lower.

| BINDER | DISCRETE_LABEL |
| --- | --- |
| {FITC}-DSVTDSQKRREILSRRP[pS]YRKILNDLASDAP (peptide, UniProt P15337-1 116-146, looked up, source: synthetic peptide, bought: Biomatik) [FITC-pKID S142A] | Condition met |

# input Quick check, pKd >= 6? {FITC}-DSVTDSQKRREILSRRP[pS]YRKILNALSSDAP (peptide, UniProt P15337-1 116-146, looked up, source: synthetic peptide, bought: Biomatik) [FITC-pKID D140A]
# output Condition met

# input What do you have for {FITC}-DSVTDSQKRAEILSRRP[pS]YRKILNDLSSDAP (peptide, UniProt P15337-1 116-146, looked up, source: synthetic peptide, bought: Biomatik) [FITC-pKID R125A] ?
# output Condition met

# input Continue with {FITC}-DSVTDSQKRREILSRRPSYRKILNDLSSDAP (peptide, UniProt P15337-1 116-146, looked up, 'pSer to Ser' in the text; also called ∆pS133; pS133S; source: synthetic peptide, bought: Biomatik) [FITC-KID, not phosphorylated at Ser133 (CREB residues 116-146)]
# output Condition not met
